FYI, the data here is from paper PMC8062585.

Measured pKd values are reported for all entries that follow.
Target: NGAL (UniProt P80188 21-198)
Sequence (P80188 21-198): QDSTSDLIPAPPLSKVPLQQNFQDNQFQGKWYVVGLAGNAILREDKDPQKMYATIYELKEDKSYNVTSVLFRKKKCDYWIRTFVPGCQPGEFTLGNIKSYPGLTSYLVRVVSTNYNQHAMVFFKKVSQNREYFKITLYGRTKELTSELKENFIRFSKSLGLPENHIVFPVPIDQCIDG
Experiment: bead-based fluorescence, 4-concentration estimate; PBSMCT: DPBS with 2.5 mM MgCl2, 0.9 mM CaCl2, 0.01% Tween 20; room temperature, 1 h; bound NGAL detected with iFluor 647 anti-His antibody (6 nM)
Settings: protein: commercial; tags: C-terminal His-tag; hairpin (predicted)
pKd: −log10 of the molar value.

- Binder: "GAGGATTTGGTGGATAGTAAATC (ssDNA, 5' biotin) [G13.8 (G13_23)]"
  pKd: "> 8.10"

Please look at the following binder next.
pKd for ACGTTTTTGGTGGATAGCAAATG (ssDNA, 5' biotin) [G12.5 (G12_23)] is > 7.80
